tested on: A375P F11s tumor cells; experiment: Cell growth inhibition assay (CellTiter-Glo), A375P F11s; type: cell-based, Human; settings: Homo sapiens
Where a name gives a salt, the structure may show the parent alone.
IC50 for assorted compounds

The examples below pair each entry with its known result.
compound=CC(C)c1nc(-c2cc(F)c(F)c(NS(=O)(=O)c3cccc(F)c3)c2)c(-c2ccnc(Nc3cnc(N4CCOCC4)c(F)c3)n2)s1 tested_on="A375P F11s tumor cells" measured_attribute=IC50 readout_value="100 to 1000 nM"
compound=O=S(=O)(Nc1cccc(-c2nc(N3CCOCC3)sc2-c2ccnc(Nc3ccc(N4CCOCC4)nc3)n2)c1F)c1c(F)cccc1F tested_on="A375P F11s tumor cells" measured_attribute=IC50 readout_value="< 100 nM"
compound=CC(C)c1nc(-c2ccc(F)c(NS(=O)(=O)c3c(F)cccc3F)c2)c(-c2ccnc(Nc3ccnc(N4CCOCC4)c3)n2)s1 tested_on="A375P F11s tumor cells" measured_attribute=IC50 readout_value="100 to 1000 nM"
compound=CC(C)c1nc(-c2ccc(F)c(NS(=O)(=O)c3c(F)cccc3F)c2)c(-c2ccnc(Nc3ccncc3)n2)s1 tested_on="A375P F11s tumor cells" measured_attribute=IC50 readout_value="100 to 1000 nM"
compound=CC(C)c1nc(-c2ccnc(NS(=O)(=O)c3c(F)cccc3F)c2)c(-c2ccnc(Nc3ccc(N4CCOCC4)nc3)n2)s1 tested_on="A375P F11s tumor cells" measured_attribute=IC50 readout_value="< 100 nM"

What measured IC50 goes with Cc1cc(N2CCN(CCS(C)(=O)=O)CC2)ncc1Nc1nccc(-c2sc(C(C)C)nc2-c2cccc(NS(=O)(=O)c3c(F)cccc3F)c2)n1 ?
< 100 nM

Entry to check: CC(=O)N1CCN(c2ccc(Nc3nccc(-c4sc(C(C)C)nc4-c4cccc(NS(=O)(=O)c5ccccc5F)c4)n3)cn2)CC1
< 100 nM

Entry to check: CCc1nc(-c2cccc(NS(=O)(=O)c3ccccc3)c2)c(-c2ccnc(Nc3ccc(N4CCOCC4)c(F)c3)n2)s1
100 to 1000 nM

Entry to check: CS(=O)(=O)c1cccc(Nc2nccc(-c3sc(N4CCOCC4)nc3-c3cccc(NS(=O)(=O)c4c(F)cccc4F)c3Cl)n2)c1
< 100 nM

Entry to check: CS(=O)(=O)CCN1CCN(c2ccc(Nc3nccc(-c4oc(N5CCCC5)nc4-c4ccc(F)c(NS(=O)(=O)c5c(F)cccc5F)c4)n3)cc2F)CC1
100 to 1000 nM

Entry to check: COc1cc(N2CCN(CCS(C)(=O)=O)CC2)c(C)cc1Nc1nccc(-c2sc(C(C)C)nc2-c2cccc(NS(=O)(=O)c3c(F)cccc3F)c2)n1
100 to 1000 nM

Entry to check: CC(C)c1nc(-c2ccc(F)c(NS(=O)(=O)c3ccccc3F)c2)c(-c2ccnc(Nc3ccc(N4CCN(CCS(C)(=O)=O)CC4)c(F)c3)n2)s1 [Example 22, hydrochloride]
< 100 nM

Entry to check: CC(C)(C)c1nc(-c2ccc(F)c(NS(=O)(=O)c3c(F)cccc3F)c2)c(-c2ccnc(Nc3ccc(N4CCN(CCF)CC4)c(F)c3)n2)s1
100 to 1000 nM

Entry to check: CC(C)c1nc(-c2cc(F)cc(NS(=O)(=O)c3c(F)cccc3F)c2)c(-c2ccnc(Nc3ccc(N4CCOCC4)nc3)n2)s1
< 100 nM

Ref: patent US20110319392A1
